What follows is a record of Ki for human α-thrombin (Homo sapiens, UniProt P00734).
Structures can show the parent of a compound that is named as a salt.
experimental-endpoint: Ki

compound=O=C(NCc1cc2cnccc2[nH]1)[C@@H]1CCc2c(Cl)nc(NCC3(c4ccccc4)CC3)c(=O)n21 measured_result="0.5 to 2.5 µM"
compound="CCc1cccc([C@@H](CC)Nc2ncc3n(c2=O)[C@H](C(=O)NCc2cc4c(s2)CNC4)CC3)c1 [Compound 268, trifluoroacetate]" measured_result="< 0.5 µM"
compound=Cc1cccc([C@@H](C)Nc2ncc3n(c2=O)[C@H](C(=O)NCc2cc4c(s2)CNC4)CC3)c1 measured_result="2.5 to 10 µM"
compound=Cc1cc(F)cc(CNc2ncc3n(c2=O)[C@@H](C(=O)NCc2ccc(N)nc2C)CC3)c1 measured_result="< 0.5 µM"

----------
pKi: −log10 of the molar value. Where a name gives a salt, the structure may show the parent alone.
What follows is a record of pKi for human α-thrombin (Homo sapiens, UniProt P00734).
experimental-endpoint: pKi

molecule="Cc1cc(C)cc(CNc2nc(Cl)c3n(c2=O)[C@H](C(=O)NCc2cccnc2C)CC3)c1 [Compound 89, trifluoroacetate]" assayed_target="human α-thrombin (Homo sapiens, UniProt P00734)" measured_result="< 4.60"
molecule="Cc1nc(N)ccc1CNC(=O)[C@@H]1CCc2c(Cl)nc(NCc3cccc(S(C)(=O)=O)c3)c(=O)n21 [Compound 98, trifluoroacetate]" assayed_target="human α-thrombin (Homo sapiens, UniProt P00734)" measured_result="5.60 to 6.30"
molecule=Cc1ccccc1[C@H](C)Nc1ncc2n(c1=O)[C@H](C(=O)NCc1cc3cnccc3[nH]1)CC2 assayed_target="human α-thrombin (Homo sapiens, UniProt P00734)" measured_result="5.00 to 5.60"
molecule=Cc1ccccc1CNc1ncc2n(c1=O)[C@H](C(=O)N[C@H](C)c1ccc(N)nc1)CC2 assayed_target="human α-thrombin (Homo sapiens, UniProt P00734)" measured_result="4.60 to 5.00"
molecule="O=C(NCc1cc2cnccc2[nH]1)[C@@H]1CC2(CCCC2)c2c(Cl)nc(NCc3ccccc3)c(=O)n21 [Compound 231, trifluoroacetate]" assayed_target="human α-thrombin (Homo sapiens, UniProt P00734)" measured_result="4.60 to 5.00"
molecule="Cc1cc(C)cc(CNc2ncc3n(c2=O)[C@H](C(=O)NCc2cc4c(s2)CN(C)C4)CC3)c1 [Compound 42, trifluoroacetate]" assayed_target="human α-thrombin (Homo sapiens, UniProt P00734)" measured_result="4.60 to 5.00"
molecule="Cc1ccc(F)c(CNc2nc(C#N)c3n(c2=O)[C@H](C(=O)NCc2ccc(N)nc2C)CC3)c1 [Compound 223, trifluoroacetate]" assayed_target="human α-thrombin (Homo sapiens, UniProt P00734)" measured_result="5.00 to 5.60"
molecule="Cc1cc(F)cc(CNc2ncc3n(c2=O)[C@H](C(=O)NCc2ccc(CN)cc2)CC3)c1 [Compound 181, trifluoroacetate]" assayed_target="human α-thrombin (Homo sapiens, UniProt P00734)" measured_result="5.00 to 5.60"
molecule=Cc1cccc(CNc2nc(Cl)c3n(c2=O)[C@H](C(=O)NCc2cc4c(s2)CNC4)CC3)c1C assayed_target="human α-thrombin (Homo sapiens, UniProt P00734)" measured_result="5.00 to 5.60"
molecule="C[C@@H](NC(=O)[C@@H]1CCc2cnc(N[C@@H](c3ccccc3)C(C)(C)C)c(=O)n21)c1cc2c(s1)CNC2 [Compound 269, trifluoroacetate]" assayed_target="human α-thrombin (Homo sapiens, UniProt P00734)" measured_result="5.00 to 5.60"
molecule=Cc1cc(C)cc(CNc2ncc3n(c2=O)[C@H](C(=O)N[C@@H]2CCc4nc(N)ccc42)CC3)c1 assayed_target="human α-thrombin (Homo sapiens, UniProt P00734)" measured_result="> 6.30"
molecule="Cc1cc(F)cc(CNc2nc(C(C)C)c3n(c2=O)[C@H](C(=O)NCc2ccc(N)nc2C)CC3)c1 [Compound 211, trifluoroacetate]" assayed_target="human α-thrombin (Homo sapiens, UniProt P00734)" measured_result="> 6.30"
molecule="Cc1cc(C)cc(CNc2nc(Cl)c3n(c2=O)[C@H](C(=O)NCc2ccc(N)nc2C)CC3)c1 [Compound 24, trifluoroacetate]" assayed_target="human α-thrombin (Homo sapiens, UniProt P00734)" measured_result="5.00 to 5.60"

----------
assayed-target: human α-thrombin (Homo sapiens)
Construct: enzyme (human α-thrombin (BioPharm® Lab.)) in assay buffer; purchased BioPharm® Lab
protocol-text: Enzymatic assay for thrombin (fluorogenic peptide substrate Boc-VPR-AMC)
Type: biochemical
Structures can show the parent of a compound that is named as a salt.
experimental-endpoint: Ki

molecule="CC[C@@H](Nc1ncc2n(c1=O)[C@H](C(=O)NCc1cc3c(s1)CNC3)CC2)c1ccccc1C [Compound 265, trifluoroacetate]" measured_result="< 500 nM"
molecule="CC[C@H]1C[C@@H](C(=O)NCc2cc3c(s2)CNC3)n2c1cnc(NCc1ccccc1)c2=O [Compound 161, hydrochloride]" measured_result="500 to 2500 nM"
molecule="Cc1cc(F)cc(CNc2nc(-c3ccnn3C)c3n(c2=O)[C@H](C(=O)NCc2cc4c(s2)CNC4)CC3)c1 [Compound 209, trifluoroacetate]" measured_result="2500 to 10000 nM"
molecule="CC[C@H]1C[C@@H](C(=O)NCc2ccc(N)nc2)n2c1cnc(NCc1cc(C)cc(C)c1)c2=O [Compound 157]" measured_result="< 500 nM"
molecule="CC[C@@H](Nc1ncc2n(c1=O)[C@H](C(=O)NCc1cc3c(s1)CNC3)CC2)c1ccc2ccccc2c1 [Compound 263, trifluoroacetate]" measured_result="500 to 2500 nM"
molecule="Cc1cc(F)cc(CNc2nc(C3CCCCC3)c3n(c2=O)[C@H](C(=O)NCc2cc4cnccc4[nH]2)CC3)c1 [Compound 177, trifluoroacetate]" measured_result="> 25000 nM"
molecule="COc1cc(C)cc(CNc2ncc3n(c2=O)[C@H](C(=O)N[C@H](C)c2ccc(N)nc2)CC3)c1 [Compound 194, trifluoroacetate]" measured_result="2500 to 10000 nM"
molecule="COc1cccc(CNc2ncc3n(c2=O)[C@H](C(=O)NCc2cc4cnccc4[nH]2)CC3)c1 [Compound 39, trifluoroacetate]" measured_result="2500 to 10000 nM"
molecule="Cc1cc(F)cc(CNc2ncc3n(c2=O)[C@H](C(=O)NCc2ccc([C@@H](C)N)cc2)CC3)c1 [Compound 173, trifluoroacetate]" measured_result="> 25000 nM"
molecule="Cc1nc(N)ccc1CNC(=O)[C@@H]1CCc2c(Cl)nc(NCc3cccc(-c4ccccc4)c3)c(=O)n21 [Compound 221, trifluoroacetate]" measured_result="2500 to 10000 nM"
molecule="C[C@H]1C[C@@H](C(=O)NCc2cc3cnccc3[nH]2)n2c1c(Cl)nc(NCc1ccccc1)c2=O [Compound 130]" measured_result="> 25000 nM"
molecule="Cc1cc(F)cc(CNc2nc(C3CCCCC3)c3n(c2=O)[C@H](C(=O)NCc2ccc(N)nc2C)CC3)c1 [Compound 176, DI-trifluoroacetate]" measured_result="10000 to 25000 nM"
molecule="Cc1cccc(CNc2nc(Cl)c3n(c2=O)[C@H](C(=O)NCc2cc4cnccc4[nH]2)CC3)c1 [Compound 114, trifluoroacetate]" measured_result="2500 to 10000 nM"
molecule="Cc1nc(N)ccc1CNC(=O)[C@H]1CCc2c(Cl)nc(NCc3ccccc3)c(=O)n21 [Compound 135]" measured_result="2500 to 10000 nM"
molecule="Cc1cc(F)cc(CNc2nc(-c3cnn(C(F)F)c3)c3n(c2=O)[C@H](C(=O)NCc2ccc(N)nc2C)CC3)c1 [Compound 214, trifluoroacetate]" measured_result="> 25000 nM"
molecule="Cc1cccc(CNc2ncc3n(c2=O)[C@H](C(=O)NCc2cc4cnccc4[nH]2)CC3)c1 [Compound 115, trifluoroacetate]" measured_result="500 to 2500 nM"
molecule="Cc1cc(F)cc(CNc2ncc3n(c2=O)[C@H](C(=O)NCc2cnc4ccccn24)CC3)c1 [Compound 204, trifluoroacetate]" measured_result="> 25000 nM"
molecule="N#Cc1nc(NCc2ccccc2)c(=O)n2c1CC[C@H]2C(=O)NCc1cc2cnccc2[nH]1 [Compound 121, trifluoroacetate]" measured_result="10000 to 25000 nM"
molecule="Cc1cc(C)cc(CNc2ncc3n(c2=O)[C@H](C(=O)NCc2cc(Cl)ccc2-n2cnnn2)CC3)c1 [Compound 284]" measured_result="< 500 nM"
molecule="COCCCCNc1nc(Cl)c2n(c1=O)[C@H](C(=O)NCc1ccc(N)nc1C)CC2 [Compound 2]" measured_result="2500 to 10000 nM"
molecule="CC(C)(C)[C@@H](Nc1ncc2n(c1=O)[C@H](C(=O)NCc1cc3c(s1)CNC3)CC2)c1ccccc1 [Compound 264, trifluoroacetate]" measured_result="< 500 nM"
molecule="Cc1cccc(C2(Nc3ncc4n(c3=O)[C@H](C(=O)NCc3cc5cnccc5[nH]3)CC4)CC2)c1 [Compound 111, trifluoroacetate]" measured_result="2500 to 10000 nM"
molecule="O=C(NCc1cc2c(s1)CNC2)[C@@H]1CCc2cnc(N[C@@H]3CCc4ccc(-c5ccccc5)cc43)c(=O)n21 [Compound 260, trifluoroacetate]" measured_result="2500 to 10000 nM"
molecule="Cc1nc(N)ccc1CNC(=O)[C@@H]1CCc2cnc(NCc3cn4c(n3)CCCC4)c(=O)n21 [Compound 168, trifluoroacetate]" measured_result="2500 to 10000 nM"
molecule="COc1cc(C)cc(CNc2ncc3n(c2=O)[C@H](C(=O)NCc2ccc(N)nc2C)CC3)c1 [Compound 49]" measured_result="< 500 nM"
molecule="O=C(NCc1cc2c(s1)CNC2)[C@@H]1CCc2cnc(N3CC(c4ccccc4)C3)c(=O)n21 [Compound 119]" measured_result="> 25000 nM"
